Where do the numbers come from? From ChEMBL document CHEMBL1201862.

tested on: SK-MEL-5; experiment: NCI tumour cell line growth inhibition, 48 h
Activity calls are given as the source filed them. No stated cut-off is given here; in the data, active = GI50 up to about 1.1 µM and inactive = higher.
Your reply should match one of these outcome classes. t (active), f (inactive)

-- ask How was CCCCOCCOC1=C(Cl)C(=O)c2c(O)ccc(O)c2C1=O classified in this test?
-- reply t

-- ask For this compound, state the assay outcome: Cc1c(C)c(S(=O)(=O)N(CCCCCON)OCCCN)c(C)c2c1OC(C)(C)CC2
-- reply f

-- ask What did this assay record as the result for CC(=O)C1C(=O)C(=O)N(c2ccccc2N2C(=O)C(=O)C(C(C)=O)C2=O)C1=O (stereo not given) ?
-- reply f

-- ask Please state the recorded outcome for this compound: COc1c(Cl)c2c(c(OC)c1OC)-c1ccc(OC)c(=O)c(Cl)c1C(NC(C)=O)CC2 (stereo not given)
-- reply t

-- ask Write down the call the test reported for this compound. Item: Cc1cc([N+](=O)[O-])ccc1/N=N/C(=O)NNc1ccc([N+](=O)[O-])cc1C
-- reply f

###

system: NCI-H23; assay: NCI tumour cell line growth inhibition, 48 h
The source made the active and inactive calls. Cut-off read from the data, not from the text of the source: active = GI50 up to about 1.1 µM and inactive = higher.
Form entry, call: pick from active, inactive

Completed entries (count: 8):
CCOCc1cc(=O)c2cc3c(cc2o1)OC(C)(C)CC3 ... inactive
Nc1ccc(N)c2c1C(=O)c1c(N)ccc(N)c1C2=O ... inactive
Oc1cc(-c2cccs2)nc2cc3c(cc12)OCO3 ... inactive
C=C1C(O)C2(O)OCC34C(CC5C(C)=CC(=O)C(O)C5(C)C23)OC(=O)C(OC(=O)C/C=C/CCCCCCCC)C14 (stereo not given) ... active
CC(=O)Nc1ccc(/C=C/C(=O)c2sc(-n3nc(-c4ccccc4)cc3-c3ccccc3)nc2C)cc1 ... inactive
COc1ccc(-c2cc(-c3ccc(Nc4ccnc5cc(C(F)(F)F)ccc45)cc3)[nH]c(=O)c2C#N)c2ccccc12 ... inactive
COc1ccc(Oc2cnn(C(Br)(Br)C(C)=O)c(=O)c2Br)cc1 ... inactive
N#CC1=C(c2ccccc2)C(O)(c2ccccc2)NC1=O (stereo not given) ... inactive

-- ask State the result this test recorded for CCOC(=O)C1C(c2ccc3c(c2)OCO3)c2c(n[nH]c2O)CC1(C)O (stereo not given) .
-- reply inactive

-- ask I would be grateful if you could indicate the recorded call for Nc1nc(Cl)cc(NCCCCO)n1 .
-- reply inactive

###

test system: TK-10; test: NCI tumour cell line growth inhibition, 48 h
Calls of active or inactive are those of the source. No stated cut-off is given here; in the data, active = GI50 up to about 1.1 µM and inactive = higher.
I would appreciate it if you answered using one of these outcomes: active, inactive

See these solved cases before continuing.
C=C(c1ccccc1)c1ccccc1-c1cc(-c2ccccc2)cc(-c2ccccc2)n1 ... inactive
CN(C)CCNC(=O)c1ccc(NCCCN(C)CCCNc2ccc3c(=O)n(CCN(C)C)c(=O)n4c5ccccc5c(=O)c2c34)c2c(O)c3ccccc3nc12 ... active
NN=C(CC(O)(C(F)(F)Cl)C(F)(F)Cl)CC(O)(C(F)(F)Cl)C(F)(F)Cl ... inactive
O=C(Nc1ccccc1)OCCN=c1c2ccccc2ccc2ccccc12 ... inactive
Cn1c2c(c3ccccc31)CCN1C(=O)CCC21 (configuration not stated) ... inactive
COC(=O)c1c(C)cccc1C1CN=NC12Cc1cc(C)c(C)cc1C2=O (configuration not stated) ... inactive

-- ask Hi team, can someone confirm the assay call for COc1cc2c(cc1OC)C(CC1=C(c3ccccc3)CN3CCc4cc(OC)c(OC)cc4C3C1)NCC2 (configuration not stated) ?
-- reply inactive

-- ask Lab log entry: Cc1cc(S(=O)(=O)Nc2cc(N)n[nH]2)c(SCc2nc(N)nc(N(C)C)n2)cc1Cl — outcome as called in the assay?
-- reply inactive
